target: EPHB1 (UniProt P54762); assay: phosphorylation enrichment, bacterial display (enrichment ratio); higher = better substrate or ligand; peptides without Tyr show the background;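 further: 11-residue human phosphosite peptides and single-mutation variants displayed on the E. coli surface, counted by deep sequencing, each peptide's frequency after selection divided by its frequency in the unselected input library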;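 further: frequency after pTyr selection over input frequency; kinase dosed for 20-30% of maximal phosphorylation in three min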
Sequence (P54762 whole entry, looked up): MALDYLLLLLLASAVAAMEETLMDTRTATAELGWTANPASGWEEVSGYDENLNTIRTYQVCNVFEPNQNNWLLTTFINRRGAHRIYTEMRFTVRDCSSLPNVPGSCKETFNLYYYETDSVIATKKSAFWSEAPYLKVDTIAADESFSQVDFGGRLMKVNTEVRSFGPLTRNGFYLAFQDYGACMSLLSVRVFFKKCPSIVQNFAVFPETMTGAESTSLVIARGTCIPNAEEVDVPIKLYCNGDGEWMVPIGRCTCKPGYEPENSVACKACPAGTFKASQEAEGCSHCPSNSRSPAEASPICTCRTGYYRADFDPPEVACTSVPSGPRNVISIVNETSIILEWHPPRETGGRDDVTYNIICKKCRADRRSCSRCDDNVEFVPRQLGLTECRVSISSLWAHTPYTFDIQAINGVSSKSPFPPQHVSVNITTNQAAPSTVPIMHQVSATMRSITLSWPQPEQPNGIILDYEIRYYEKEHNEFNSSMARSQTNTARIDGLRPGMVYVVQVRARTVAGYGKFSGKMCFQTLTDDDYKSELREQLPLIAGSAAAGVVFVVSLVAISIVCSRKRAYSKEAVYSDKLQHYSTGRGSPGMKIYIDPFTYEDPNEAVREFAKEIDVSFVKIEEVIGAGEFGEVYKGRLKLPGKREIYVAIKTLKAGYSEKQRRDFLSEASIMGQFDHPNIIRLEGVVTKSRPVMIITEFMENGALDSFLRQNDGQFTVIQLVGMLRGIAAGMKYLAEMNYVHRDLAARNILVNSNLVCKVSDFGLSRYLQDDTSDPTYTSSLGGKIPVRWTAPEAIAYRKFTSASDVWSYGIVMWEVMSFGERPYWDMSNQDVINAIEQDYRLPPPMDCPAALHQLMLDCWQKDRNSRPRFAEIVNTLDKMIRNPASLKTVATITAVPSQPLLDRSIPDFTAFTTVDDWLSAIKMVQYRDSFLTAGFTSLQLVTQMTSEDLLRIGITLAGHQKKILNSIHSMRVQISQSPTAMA
reportedEndpoint: phosphorylation enrichment
No unit in the answer, please; the number alone is enough.

Need phosphorylation enrichment of GVFSRYFTTFD [CLCA1_Y661_YF] , thanks.
0.458

Need phosphorylation enrichment of FGMQLYQKFMH [GRB14_Y347_N349K_YF] , thanks.
1.39

Need phosphorylation enrichment of RGESFYQDRMN [RARS_Y338] , thanks.
0.463

Need phosphorylation enrichment of FGISGYLVDSV [MAP2K3_Y214] , thanks.
0.377

Need phosphorylation enrichment of IDSTPYGQWFE [RPS8_Y109_R110G_YF] , thanks.
0.621

Need phosphorylation enrichment of QRTMKYTTATE [MCCC1_Y41_G46E] , thanks.
0.791

Need phosphorylation enrichment of PESCLYKESWI [IQGAP2_Y630_L635I] , thanks.
0.931

Need phosphorylation enrichment of TYVVLYDAELT [ERCC4_Y581_R576T] , thanks.
4.46

Need phosphorylation enrichment of HNVAIYEGYAL [ACTC1_Y168_P166A] , thanks.
15.8

Need phosphorylation enrichment of SKEPFYVRCIK [MYO1D_Y586_YF] , thanks.
0.951

Need phosphorylation enrichment of PSSRDYKHNIK [PIGN_Y227] , thanks.
0.321

Need phosphorylation enrichment of APIEDYGGGGG [B4GALT6_Y382] , thanks.
0.649

Need phosphorylation enrichment of RFLRGYEQDAY [HLA-A_Y137_R138E] , thanks.
0.358

Need phosphorylation enrichment of RVAFQYGVTDL [MYBPC3_Y340_I336V] , thanks.
0.461

Need phosphorylation enrichment of SPPILYSFYLD [FCRL6_Y239] , thanks.
3.28

Need phosphorylation enrichment of LASLIYNFILF [AQP6_Y231_V234I] , thanks.
2.51

Need phosphorylation enrichment of ILGRTYYVNHE [NEDD4_Y627] , thanks.
0.607

Need phosphorylation enrichment of PLFKICVAELI [MRPL28_Y230_Y230C] , thanks.
1.06

Need phosphorylation enrichment of GHGRFYMKEAI [PGM1_Y66_D62H] , thanks.
0.342

Need phosphorylation enrichment of CNNFIYGGCRG [SPINT2_Y163] , thanks.
0.361

Need phosphorylation enrichment of QMVGKYASSYM [AVPR2_Y124_M123K] , thanks.
0.336

Need phosphorylation enrichment of ETESPYQELQG [TYROBP_Y91] , thanks.
0.624

Need phosphorylation enrichment of VMSMNYRVGAL [BCHE_Y174_V170M] , thanks.
0.578

Need phosphorylation enrichment of SRPTQYSSFSC [SPEM2_Y104] , thanks.
0.584

Need phosphorylation enrichment of DESEDCRDTVV [CNNM3_Y456_Y456C] , thanks.
0.788

Need phosphorylation enrichment of VPVNGYQPVPA [ROR2_Y824] , thanks.
0.554

Need phosphorylation enrichment of LKVKAYRFSIS [LCT_Y974] , thanks.
0.672

Need phosphorylation enrichment of AVRYIYTIDGS [DCX_Y105_G100A] , thanks.
0.65

Need phosphorylation enrichment of EPAVLYNLKER [MYH7_Y103_D107E] , thanks.
0.354

---

test system: AncSZ; experiment: phosphorylation enrichment, bacterial display (enrichment ratio); higher = better substrate or ligand; peptides without Tyr show the background
Decision: phosphorylation enrichment >= 0.7 yields 1, all other cases yield -1.

Does IDAVCYFRMEN [NPHS2_Y194_I192V_YF] have a reported phosphorylation enrichment of at least 0.7?
1

Does CLMILYRLKER [PTPRR_Y249] have a reported phosphorylation enrichment of at least 0.7?
1

Does CSHKFYGKQCC [ADAMTS16_Y1211] have a reported phosphorylation enrichment of at least 0.7?
-1

Does `IETGRYEILTE` have a reported phosphorylation enrichment of at least 0.7?
1

Does SDVDLYQVRTA [PSMD9_Y70] have a reported phosphorylation enrichment of at least 0.7?
1

Does EEGESHVCSSD [DCX_Y125_Y125H] have a reported phosphorylation enrichment of at least 0.7?
1

Does KPLMPYMRYSR [SMARCE1_Y73] have a reported phosphorylation enrichment of at least 0.7?
1

Does ALAHKYLGGGG [HBB_Y146_H147L] have a reported phosphorylation enrichment of at least 0.7?
-1

Does MGCVNYGAFIN [GLB1_Y485_R482C_YF] have a reported phosphorylation enrichment of at least 0.7?
1

Does ARGMEYLASQK [FGFR2_Y616] have a reported phosphorylation enrichment of at least 0.7?
-1

Does KIIRRYVSSEG [ANK2_Y3907] have a reported phosphorylation enrichment of at least 0.7?
-1

Does QLCVSYPGGYT [PROS1_Y259_N258S] have a reported phosphorylation enrichment of at least 0.7?
1

Does FGISGYLVDSV [MAP2K3_Y214] have a reported phosphorylation enrichment of at least 0.7?
1

---

biological target: Fyn (UniProt P06241); assay: phosphorylation enrichment, bacterial display (enrichment ratio); higher = better substrate or ligand; peptides without Tyr show the background
Sequence (P06241 whole entry, looked up): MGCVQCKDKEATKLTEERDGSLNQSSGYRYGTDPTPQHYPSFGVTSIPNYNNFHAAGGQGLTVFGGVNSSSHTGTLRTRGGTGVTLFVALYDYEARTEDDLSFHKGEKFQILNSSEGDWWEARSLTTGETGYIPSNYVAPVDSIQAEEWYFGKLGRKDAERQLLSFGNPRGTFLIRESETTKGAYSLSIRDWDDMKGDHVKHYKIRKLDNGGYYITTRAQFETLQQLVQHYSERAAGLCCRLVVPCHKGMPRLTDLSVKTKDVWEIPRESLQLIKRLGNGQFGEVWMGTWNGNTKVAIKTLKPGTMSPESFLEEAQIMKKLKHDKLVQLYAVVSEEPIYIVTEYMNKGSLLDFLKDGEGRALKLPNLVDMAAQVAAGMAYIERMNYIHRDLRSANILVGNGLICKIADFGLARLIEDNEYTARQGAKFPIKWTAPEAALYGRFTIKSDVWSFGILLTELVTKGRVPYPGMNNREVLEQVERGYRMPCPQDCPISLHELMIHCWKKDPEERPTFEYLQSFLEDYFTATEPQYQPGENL
Decision: phosphorylation enrichment >= 0.5 yields 1.0, all other cases yield 0.0.

Does MVIPNYSSRTE [UROC1_Y185] have a reported phosphorylation enrichment of at least 0.5?
0.0

Does RREGVYRNNID [PTEN_Y46_L42R] have a reported phosphorylation enrichment of at least 0.5?
1.0

Does RLLVVYPWTQR [HBB_Y36] have a reported phosphorylation enrichment of at least 0.5?
1.0

Does RISGVYKLPPD [ANGPTL7_Y145] have a reported phosphorylation enrichment of at least 0.5?
1.0

Does PSSNLYFRWLT [CNGA3_Y168_YF] have a reported phosphorylation enrichment of at least 0.5?
1.0

Does CTTILYNYMCN [TP53_Y234_H233L] have a reported phosphorylation enrichment of at least 0.5?
1.0

Does AAVDEYLEYRR [FAM221A_Y17] have a reported phosphorylation enrichment of at least 0.5?
1.0

Does RVKTPYSLKRW [BMPR2_Y979] have a reported phosphorylation enrichment of at least 0.5?
1.0

Does TFGQVYKGRHV [TNIK_Y40_YF] have a reported phosphorylation enrichment of at least 0.5?
0.0

Does YLENYYDLEKD [MMP3_Y42_K45E] have a reported phosphorylation enrichment of at least 0.5?
1.0

Does GHGRFYMKEAI [PGM1_Y66_D62H] have a reported phosphorylation enrichment of at least 0.5?
0.0

Does LEVETYRRLLD [KRT12_Y429_I426V] have a reported phosphorylation enrichment of at least 0.5?
0.0

Does HPFHVYPQPGM [BAG3_Y114] have a reported phosphorylation enrichment of at least 0.5?
1.0

---

target: Hck (UniProt P08631); assay: phosphorylation enrichment, bacterial display (enrichment ratio); higher = better substrate or ligand; peptides without Tyr show the background
Sequence (P08631 whole entry, looked up): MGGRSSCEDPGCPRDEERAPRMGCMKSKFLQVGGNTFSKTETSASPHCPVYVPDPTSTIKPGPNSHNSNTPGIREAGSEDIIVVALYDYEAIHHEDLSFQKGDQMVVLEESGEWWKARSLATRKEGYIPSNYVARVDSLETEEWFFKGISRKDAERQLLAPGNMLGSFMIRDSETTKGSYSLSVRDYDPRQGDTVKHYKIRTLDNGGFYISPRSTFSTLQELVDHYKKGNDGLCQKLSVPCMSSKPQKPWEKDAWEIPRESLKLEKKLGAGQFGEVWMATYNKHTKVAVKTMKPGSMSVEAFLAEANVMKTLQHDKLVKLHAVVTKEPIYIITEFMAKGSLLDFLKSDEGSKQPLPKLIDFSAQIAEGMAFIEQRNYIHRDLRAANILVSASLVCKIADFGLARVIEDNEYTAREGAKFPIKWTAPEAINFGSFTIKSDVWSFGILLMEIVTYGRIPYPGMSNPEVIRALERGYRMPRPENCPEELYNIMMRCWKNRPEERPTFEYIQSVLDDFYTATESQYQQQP
Decision: phosphorylation enrichment >= 0.6 yields true (1), all other cases yield false (0).

Does RVEDAYILTCN [CCT6A_Y229] have a reported phosphorylation enrichment of at least 0.6?
true (1)

Does HSREDYFECFQ [ZIM2_Y411_Q408R] have a reported phosphorylation enrichment of at least 0.6?
true (1)

Does KNKELYSDPFD [PDE10A_Y300_L303P] have a reported phosphorylation enrichment of at least 0.6?
true (1)

Does REGKIYEFNQV [ZNF665_Y162_H157R_YF] have a reported phosphorylation enrichment of at least 0.6?
true (1)

Does AKQVGYENAGT [PC_Y304] have a reported phosphorylation enrichment of at least 0.6?
false (0)

Does FFIMMYTGSNV [DNAJC13_Y1131] have a reported phosphorylation enrichment of at least 0.6?
false (0)

Does CLMILHRLKER [PTPRR_Y249_Y249H] have a reported phosphorylation enrichment of at least 0.6?
false (0)

Does NTQRPHFKGGG [TYROBP_Y111_Y111H_YF] have a reported phosphorylation enrichment of at least 0.6?
false (0)

Does IEEGTYGVAYR [CDK11B_Y449_V452A] have a reported phosphorylation enrichment of at least 0.6?
true (1)

Does FGHTFYNQAIM [MCCC2_Y196_R193H] have a reported phosphorylation enrichment of at least 0.6?
false (0)

Does VLRQVYVDFEG [KMT2B_Y1707_R1705Q] have a reported phosphorylation enrichment of at least 0.6?
true (1)

Does FASALYGQRRS [FGF11_Y162_R163G_YF] have a reported phosphorylation enrichment of at least 0.6?
true (1)

---

system: AncSZ; experiment: phosphorylation enrichment, bacterial display (enrichment ratio); higher = better substrate or ligand; peptides without Tyr show the background
Decision: phosphorylation enrichment >= 1 yields condition met, all other cases yield condition not met.

Does RSSPVYVGRVV [TGM2_Y219] have a reported phosphorylation enrichment of at least 1?
condition met

Does IGSQRYKLGVR [RB1_Y446] have a reported phosphorylation enrichment of at least 1?
condition not met

Does RSSGSYGGGGQ [HNRNPA1_Y341_P340S] have a reported phosphorylation enrichment of at least 1?
condition not met

Does `TENAGYYFRIS` have a reported phosphorylation enrichment of at least 1?
condition met

Does AKQVGYENAGT [PC_Y304] have a reported phosphorylation enrichment of at least 1?
condition not met

Does TVLWQYTGTRP [UGT1A1_Y337_R336Q] have a reported phosphorylation enrichment of at least 1?
condition not met

Does IVAREYYSEAD [CAMK2A_Y106] have a reported phosphorylation enrichment of at least 1?
condition met

Does SLNEGYARDFD [FBP1_Y216] have a reported phosphorylation enrichment of at least 1?
condition met

Does SSDKVYAHQMD [MLH1_Y379_V384D] have a reported phosphorylation enrichment of at least 1?
condition not met

Does CPSLPYSPVSS [CAMKK2_Y128] have a reported phosphorylation enrichment of at least 1?
condition not met

Does YLENYYDLEKD [MMP3_Y42_K45E] have a reported phosphorylation enrichment of at least 1?
condition met

Does LGSWTYPKTVS [ROS1_Y144_T145P] have a reported phosphorylation enrichment of at least 1?
condition not met

Does TLQTMYGCDVG [HLA-B_Y123_S121T] have a reported phosphorylation enrichment of at least 1?
condition met

Does `TETGRYEILTE` have a reported phosphorylation enrichment of at least 1?
condition not met

Does EDGFAYVPLKD [PRIM2_Y208] have a reported phosphorylation enrichment of at least 1?
condition met

Does CTTIHYNYMGN [TP53_Y234_C238G] have a reported phosphorylation enrichment of at least 1?
condition not met

Does QRPGLYDRPGA [HNRNPH2_Y210_P209L] have a reported phosphorylation enrichment of at least 1?
condition not met

Does MSSLPYMKMIF [SLC4A11_Y853] have a reported phosphorylation enrichment of at least 1?
condition not met

Does LARDIYKNDYY [ROS1_Y2110] have a reported phosphorylation enrichment of at least 1?
condition met

Does NPETCYQRLKK [TK2_Y190] have a reported phosphorylation enrichment of at least 1?
condition met

Does EHAGEYGAEAL [HBA1_Y25_A20E] have a reported phosphorylation enrichment of at least 1?
condition not met

Does YTTIHYNYMCN [TP53_Y234_C229Y] have a reported phosphorylation enrichment of at least 1?
condition met

Does EKKDVYKTGEQ [CFH_Y1008_A1010T] have a reported phosphorylation enrichment of at least 1?
condition not met

Does KYRREYILSLE [GPC3_Y299_W296R] have a reported phosphorylation enrichment of at least 1?
condition not met

Does EEQKRYFNAMK [SCN5A_Y1494_K1493R_YF] have a reported phosphorylation enrichment of at least 1?
condition not met

Does GGGFGYQKTKK [DDX18_Y643] have a reported phosphorylation enrichment of at least 1?
condition not met

Does PLFKICVAELI [MRPL28_Y230_Y230C] have a reported phosphorylation enrichment of at least 1?
condition met

Does EYFDGYWEYSV [ITGA2B_Y265_G267E] have a reported phosphorylation enrichment of at least 1?
condition met

Does FMRGMYFRMKD [PLA2G6_Y541_YF] have a reported phosphorylation enrichment of at least 1?
condition met

Does ADEEYYEIIAA [FEStide_no-pY_2014] have a reported phosphorylation enrichment of at least 1?
condition met

From: the supplement of paper PMC10065799
